Subject of test: CDK9/CycT1 (Homo sapiens (Human))
Sequence (P50750 whole entry): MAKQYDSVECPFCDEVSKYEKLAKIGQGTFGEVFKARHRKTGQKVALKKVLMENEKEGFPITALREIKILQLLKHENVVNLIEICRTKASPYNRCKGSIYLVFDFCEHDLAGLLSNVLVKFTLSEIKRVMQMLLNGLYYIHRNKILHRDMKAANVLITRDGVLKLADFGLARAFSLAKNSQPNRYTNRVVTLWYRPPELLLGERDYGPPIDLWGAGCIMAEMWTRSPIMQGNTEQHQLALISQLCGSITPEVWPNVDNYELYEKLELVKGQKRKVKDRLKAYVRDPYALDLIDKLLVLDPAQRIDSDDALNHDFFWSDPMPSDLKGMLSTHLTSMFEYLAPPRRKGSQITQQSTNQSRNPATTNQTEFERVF
Sequence (O60563 whole entry partner): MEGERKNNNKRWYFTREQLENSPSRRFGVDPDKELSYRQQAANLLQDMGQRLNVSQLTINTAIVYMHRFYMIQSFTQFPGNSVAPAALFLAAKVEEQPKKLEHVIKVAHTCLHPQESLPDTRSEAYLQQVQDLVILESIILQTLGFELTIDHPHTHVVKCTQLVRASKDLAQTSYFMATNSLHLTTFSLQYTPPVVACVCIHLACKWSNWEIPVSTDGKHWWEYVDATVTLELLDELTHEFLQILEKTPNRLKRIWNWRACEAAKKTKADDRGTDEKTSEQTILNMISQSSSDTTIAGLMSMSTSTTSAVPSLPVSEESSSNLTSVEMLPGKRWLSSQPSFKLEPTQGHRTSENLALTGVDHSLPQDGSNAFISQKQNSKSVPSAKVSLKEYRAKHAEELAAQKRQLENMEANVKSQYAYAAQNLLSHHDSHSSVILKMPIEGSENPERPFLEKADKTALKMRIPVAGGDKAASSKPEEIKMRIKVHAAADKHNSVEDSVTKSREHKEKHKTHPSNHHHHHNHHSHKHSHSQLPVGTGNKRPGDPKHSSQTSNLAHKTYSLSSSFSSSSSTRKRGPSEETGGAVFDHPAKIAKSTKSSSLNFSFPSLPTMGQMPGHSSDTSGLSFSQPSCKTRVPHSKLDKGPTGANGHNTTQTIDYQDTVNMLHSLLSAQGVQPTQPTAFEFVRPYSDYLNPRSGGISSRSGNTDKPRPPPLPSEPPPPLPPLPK
Measurement description: CDK9 kinase assay, ATP concentration at Km (mobility shift, Caliper LC3000)
Type: biochemical
Condition description: 6 μM ATP, 3 nM CDK9/CycT1; read-out: CDK9 ATP conc. at Km (IC50)
Counter-ions that a name gives are not always drawn.
Readout name: IC50

INSERT INTO results (compound, obs_value) VALUES
  ('CC1(C)Cc2c(-c3cc(NC(=O)[C@H]4CCC[C@@H](NC(=O)CCO)C4)ncc3Cl)cnn2C1', '< 3 nM'),
  ('CC(=O)N[C@@H]1CCC[C@H](C(=O)Nc2cc(-c3cnn4c3CC(C)C4)c(Cl)cn2)C1 (single isomer, unassigned) [Example 41]', '< 3 nM'),
  ('CC(=O)N[C@@H]1CCC[C@H](C(=O)Nc2cc(-c3cnn4c3CCCC4)ncn2)C1', '36 nM'),
  ('CC(=O)N[C@@H]1CCC[C@H](C(=O)Nc2cc(-c3cnn4c3CCC(C)C4)c(Cl)cn2)C1 (single isomer, unassigned) [Example 68]', '< 3 nM'),
  ('CC(=O)N[C@@H]1CCC[C@H](C(=O)Nc2cc(-c3cnn4c3CC(C)(C)C4)ncn2)C1', '7 nM'),
  ('CC(=O)N[C@@H]1CCC[C@@H](C(=O)Nc2cc(-c3cnn4c3CC(C)(C)C4)c(F)cn2)C1 (single isomer, unassigned)', '< 3 nM'),
  ('CC(=O)N[C@@H]1CC[C@H](C(=O)Nc2cc(-c3cnn4c3CC(C)(C)C4)c(Cl)cn2)C1', '< 3 nM'),
  ('CC(=O)N[C@@H]1CCC[C@H](C(=O)Nc2cc(-c3cnn4c3COCC4)c(Cl)cn2)C1', '11 nM'),
  ('CC1(C)Cc2c(-c3cc(NC(=O)[C@H]4CCC[C@@H](NC(=O)[C@H]5CCCO5)C4)ncc3Cl)cnn2C1', '< 3 nM'),
  ('O=C(Nc1cc(-c2cnc3n2CCCC3)c(Cl)cn1)[C@@H]1CCCNC1', '49.1 nM'),
  ('CC(=O)N[C@@H]1CCC[C@H](C(=O)Nc2cc(-c3cn[nH]c3CCCCO)c(Cl)cn2)C1 [Example 78a]', '< 3 nM'),
  ('O=C(Nc1cc(-c2cnn3c2CCCC3)ncn1)[C@H]1C[C@H](O)C1', '63 nM'),
  ('CC(=O)N[C@@H]1CCC[C@H](C(=O)Nc2cc(-c3cnn4c3CC(C)C4)c(Cl)cn2)C1 (single isomer, unassigned) [Example 42]', '< 3 nM'),
  ('CC1(C)Cc2c(-c3cc(NC(=O)[C@H]4C[C@@H](O)C4)ncc3Cl)cnn2C1', '< 3 nM'),
  ('CC(=O)N[C@@H]1CCC[C@H](C(=O)Nc2cc(-c3cnn4c3CC(C)(C)C4)ccn2)C1', '< 3 nM'),
  ('CC1(C)Cc2ncc(-c3cc(NC(=O)[C@H]4CCC[C@@H](NC(=O)C5(O)CC5)C4)ncc3Cl)n2C1', '< 3 nM'),
  ('CC1(C)Cc2c(-c3ccnc(NC(=O)[C@H]4CCC[C@@H](NC(=O)C5COC5)C4)c3)cnn2C1', '< 3 nM'),
  ('N[C@@H]1CCC[C@H](C(=O)Nc2cc(-c3cnn4c3CCCC4)c(Cl)cn2)C1 [Example 31b, dihydrochloride]', '36 nM'),
  ('CC(=O)N[C@@H]1CCC[C@H](C(=O)Nc2cc(-c3cnc4n3CC(C)(C)C4)c(F)cn2)C1', '< 3 nM'),
  ('CC(=O)N[C@@H]1CCC[C@H](C(=O)Nc2cc(-c3cnn4c3CCC(C)C4)c(Cl)cn2)C1 (single isomer, unassigned) [Example 69]', '5 nM'),
  ('CC1(C)Cc2c(-c3ccnc(NC(=O)[C@H]4C[C@@H](O)C4)c3)cnn2C1', '< 3 nM'),
  ('CC(=O)N[C@@H]1CCC[C@H](C(=O)Nc2cc(-c3cnn4c3CC(C)(C)C4O)c(Cl)cn2)C1 (some centres unmarked)', '< 4 nM'),
  ('CC1(C)Cc2ncc(-c3cc(NC(=O)[C@H]4CCC[C@@H](NC(=O)C5COC5)C4)ncc3Cl)n2C1', '< 3 nM'),
  ('COC1CCn2ncc(-c3cc(NC(=O)[C@H]4CCC[C@@H](NC(C)=O)C4)ncc3Cl)c2C1 (single isomer, unassigned) [Example 73]', '< 3 nM'),
  ('CC(=O)N[C@@H]1CCC[C@H](C(=O)Nc2cc(-c3nnn4c3CCCC4)c(Cl)cn2)C1', '39 nM'),
  ('CC(=O)N[C@@H]1CCC[C@H](C(=O)Nc2cc(-c3cn[nH]c3CC(C)(C)CO)c(Cl)cn2)C1 [Example 82a]', '4 nM'),
  ('O=C(Nc1cc(-c2cnn3c2CCCC3)c(Cl)cn1)[C@H]1CCC[C@@H](NC(=O)C2(O)CC2)C1', '< 3 nM'),
  ('O=C(Nc1cc(-c2cnn3c2CCCC3)c(Cl)cn1)[C@H]1CCC[C@@H](NC(=O)[C@@H]2CCOC2)C1', '< 3 nM'),
  ('COC1CCn2ncc(-c3cc(NC(=O)[C@H]4CCC[C@@H](NC(C)=O)C4)ncc3Cl)c2C1 (single isomer, unassigned) [Example 72]', '3 nM');
